Test system: CGNs
Experimental Details: Cisplatin Killing of CGNs
Assay type: cell-based, CD1 mice
Test Settings: assayed 48 hours after final drug treatment
Reported Metric: pIC50
Field pIC50 (float): negative decimal logarithm of the concentration in molar.

Previously resolved entries follow.
O=C1C=C(c2c[nH]c3ccc(OCc4ccccc4)cc23)C(=O)N1 [Compound 64]	5.52
COc1ccc2c(c1)CC1c3[nH]c4ccccc4c3C3=C(C(=O)NC3=O)N21 (stereo not shown) [Compound 34]	5.00

Prompt: // query pIC50 value for entry O=C1NC(=O)c2c1c1c3cc(OCc4ccccc4)ccc3[nH]c1c1cc3ccccc3n21 [Compound 52]
Response: 5.52

Prompt: Quick check: pIC50 of COc1ccc2c(c1)cc1c3[nH]c4ccccc4c3c3c(n21)C(=O)NC3=O [Compound 48] ?
Response: 5.00
